Where do the numbers come from? From PubChem BioAssay (NCI).

- Test system: MDA-MB-468 breast
- assay-notes: NCI-60 one-dose screen, 48 h
- condition-context: 10 µM unless noted
Compounds without any hit were thinned out: in the full panel of roughly 83,000, 20% have a hit. Activity calls are given as the source filed them. How the source made its calls: active means growth percent below 10; inactive means the rest.
Possible outcomes: TRUE = active, FALSE = inactive

- compound: "O=S(=O)(NCCNc1nccc(-n2cnc3ccccc32)n1)c1ccc(C(F)(F)F)cc1"
  tgt: "MDA-MB-468 breast"
  cat: "FALSE"
- compound: "CC1=CC2c3oc(-c4ccccc4)c(C(=O)c4ccccc4)c3CNC2C=C1 (stereo unspecified)"
  tgt: "MDA-MB-468 breast"
  cat: "FALSE"
- compound: "Cc1[nH]c(/C=C/C(=O)c2ccc(C(F)(F)F)c(F)c2)c(C)c1C(=O)NCC(C)C"
  tgt: "MDA-MB-468 breast"
  cat: "FALSE"
- compound: "CCCCCN1C(=O)/C(=c2\\sc3n(c2=O)C2C(NN=3)N(CC)C(=O)N2CC)c2ccccc21 (stereo unspecified)"
  tgt: "MDA-MB-468 breast"
  cat: "TRUE"
- compound: "CN1CCc2c(sc3ncnc(N/N=C/c4ccc(Cl)c(Cl)c4)c23)C1"
  tgt: "MDA-MB-468 breast"
  cat: "TRUE"
- compound: "C[C@@H](C(=O)NCCCC#Cc1cnc(Nc2ccc(C#N)cc2)nc1NC1CC1)N(C)C(=O)/C=C/CN(C)C"
  tgt: "MDA-MB-468 breast"
  cat: "FALSE"
- compound: "COc1cc(C2CC(=O)Nc3c2c(C)nn3-c2nc3ccccc3[nH]2)cc2c1OCC(=O)N2 (stereo unspecified)"
  tgt: "MDA-MB-468 breast"
  cat: "FALSE"
- compound: "COc1cc(C2C=C(c3cccc(NC(C)=O)c3)Nc3ncnn32)cc(OC)c1OC (stereo unspecified)"
  tgt: "MDA-MB-468 breast"
  cat: "FALSE"
- compound: "O=C1C=C(O)c2ccccc2C1=O.[Ag]"
  tgt: "MDA-MB-468 breast"
  cat: "FALSE"
- compound: "CN1CCN(Cc2ccc(NC(=O)c3cncc(C#Cc4cnccc4C(F)(F)F)c3)cc2C(F)(F)F)CC1"
  tgt: "MDA-MB-468 breast"
  cat: "FALSE"
- compound: "CCCCCC1CCCCN1C(=O)OCC (stereo unspecified)"
  tgt: "MDA-MB-468 breast"
  cat: "FALSE"
- compound: "CC(C)(C)c1ccc(C(O)CCCN2CCC(C(O)(c3ccccc3)c3ccccc3)CC2)cc1 (stereo unspecified)"
  tgt: "MDA-MB-468 breast"
  cat: "TRUE"
- compound: "CC[N+](CCCCCCCCCC[N+](CC)(c1ccccn1)c1ccccn1)(c1ccccn1)c1ccccn1"
  tgt: "MDA-MB-468 breast"
  cat: "TRUE"
- compound: "Cc1ccc2c(c1)C(=O)CCS2"
  tgt: "MDA-MB-468 breast"
  cat: "FALSE"
- compound: "Nc1nc(N)c2c(n1)NC(c1ccc(C(F)(F)F)cc1)CC(c1ccc(Nc3nc(NCCO)nc(N4CCOCC4)n3)cc1)=N2 (stereo unspecified)"
  tgt: "MDA-MB-468 breast"
  cat: "FALSE"
- compound: "C1CCN(c2nc(N3CCCCC3)nc(N3CCOCC3)n2)CC1"
  tgt: "MDA-MB-468 breast"
  cat: "FALSE"
- compound: "COc1cccc(CCC(=O)c2cc3c(N)c(C(=O)Nc4ccccc4)sc3nc2C)c1"
  tgt: "MDA-MB-468 breast"
  cat: "FALSE"
- compound: "CC(C)N=C(N)/N=C(\\N)Nc1ccc2ccc3ccccc3c2c1"
  tgt: "MDA-MB-468 breast"
  cat: "TRUE"
- compound: "c1cc2c(ccc3[nH]c(-c4ccc5[nH]ncc5c4)c4c(c32)CCCC4)n1"
  tgt: "MDA-MB-468 breast"
  cat: "FALSE"
- compound: "Oc1cccc(Nc2nccc(-c3ccc4ccccc4c3)n2)c1"
  tgt: "MDA-MB-468 breast"
  cat: "FALSE"
- compound: "Cc1nc2c(ccc3ccccc32)s1"
  tgt: "MDA-MB-468 breast"
  cat: "FALSE"
